measured-property: melting point

Please review the entries below; each comes with its answer.
[[record]]
mol_smiles = "CCCC(CCC)c1ccc(OCc2ccc(-c3ccc(CN(CC(=O)O)c4nc(-c5ccc(Cl)cc5)cs4)s3)cc2)cc1"
measured_property = "melting point"
result = "116 to 117.6 °C"

[[record]]
mol_smiles = "CCCC(CCC)c1ccc(N(Cc2ccc3nc(-c4csc(COc5cncc(C(=O)O)c5)n4)oc3c2)C(C)C)cc1"
measured_property = "melting point"
result = "135 to 138 °C"

[[record]]
mol_smiles = "CC(C)CCN(CC(=O)O)Cc1nc(-c2ccc(N(C)Cc3ccc(CC(C)C)cc3)cc2)cs1"
measured_property = "melting point"
result = "155 to 156 °C"

[[record]]
mol_smiles = "CCCC(CCC)c1ccc(OCc2ccc(-c3csc(N(C)Cc4ccc(C(=O)O)cc4)n3)cc2)cc1"
measured_property = "melting point"
result = "156 to 158 °C"

[[record]]
mol_smiles = "CCCC(CCC)N(Cc1ccc(-c2csc(COc3ccc(C(=O)O)cc3)n2)cc1)c1ccc(C(C)C)cc1"
measured_property = "melting point"
result = "166 to 168 °C"

[[record]]
mol_smiles = "CCCC(CCC)c1ccc(N(Cc2ccc(-c3csc(COc4cncc(C(=O)O)c4)n3)cc2)C(C)C)cc1.[Na+]"
measured_property = "melting point"
result = "185 °C (dec.)"


Please examine the following record next.
query: For the compound shown here, O=C(O)CN(CC1CCCCC1)c1nc(-c2nc3ccc(OCc4ccc(Cl)c(Cl)c4)cc3o2)cs1 , give the reported melting point.
result: 198 to 200 °C

---

Overview of reported IC50 across a group of molecules:
Target: Recombinant human protein tyrosine phosphatase 1B (Homo sapiens, UniProt P18031)
Construct: purchased UBI
Test: Protein tyrosine phosphatase 1B inhibitory activity (malachite green, phosphorylated insulin receptor peptide substrate)
Assay type: biochemical
Settings: recombinant human PTP1B, 60 min room temperature, absorbance 650 nm
Description: Preparation of Assay Buffer: A 50 mM Tris-HCl buffer (pH 7.5), 50 mM NaCl and 3 mM dithiothreitol (DTT) were prepared. […] The sample (10 μl) prepared as mentioned above and a substrate (25 μl) were successively added to a 96 well plate, and the enzyme (25 μl) prepared as mentioned above was added and mixed. […] An absorbance at 650 nm was measured on a plate reader based on which the protein tyrosine phosphatase 1B inhibitory activity of the test compound was evaluated.

[[record]]
mol_smiles = "CCCC(CCC)c1ccc(OCc2ccc(-c3csc(CN(CC(=O)O)Cc4ccc(-c5cccs5)s4)c3)cc2)cc1"
result = "< 0.1 µM"


query: Report IC50 for Cc1ccc(OCc2ccc(C3CCCCC3)cc2)c(-c2csc(CN(C(=O)C(=O)O)c3ccc4nc(C)sc4c3)c2)c1 please.
result: 0.2 µM

query: Form field: reported IC50 of CCCC(CCC)c1ccc(OCc2ccc(-c3csc(CN(CC(=O)O)Cc4nc5ccccc5n4C)c3)cc2)cc1.O=S(=O)(O)O
result: 0.17 µM

query: Which IC50 value is on record for CCCC(CCC)c1ccc(OCc2ccc(-c3csc(CN(CC(=O)O)S(=O)(=O)N(C)c4ccccc4)c3)cc2)cc1 ?
result: 0.24 µM

query: // IC50 lookup, key: CCCC(CCC)c1ccc(OCc2ccc(-c3csc(CN(CC(=O)O)Cc4nc5ccccc5s4)c3)cc2)cc1
result: < 0.1 µM

query: Recorded IC50 for CN(Cc1ccc(C2CCCCC2)cc1)c1ccc(-c2csc(CN(C)S(=O)(=O)c3ccc(C(=O)O)cc3)n2)cc1 , please?
result: 0.15 µM

query: I have this molecule here, CCCC(CCC)c1ccc(OCc2ccc(-c3csc(COc4cc(C(=O)O)ccc4N)c3)cc2)cc1 , and I need its recorded IC50.
result: 0.25 µM

---

Molecular target: Recombinant human protein tyrosine phosphatase 1B (Homo sapiens)
Construct: purchased UBI
Sequence (P18031 1-435): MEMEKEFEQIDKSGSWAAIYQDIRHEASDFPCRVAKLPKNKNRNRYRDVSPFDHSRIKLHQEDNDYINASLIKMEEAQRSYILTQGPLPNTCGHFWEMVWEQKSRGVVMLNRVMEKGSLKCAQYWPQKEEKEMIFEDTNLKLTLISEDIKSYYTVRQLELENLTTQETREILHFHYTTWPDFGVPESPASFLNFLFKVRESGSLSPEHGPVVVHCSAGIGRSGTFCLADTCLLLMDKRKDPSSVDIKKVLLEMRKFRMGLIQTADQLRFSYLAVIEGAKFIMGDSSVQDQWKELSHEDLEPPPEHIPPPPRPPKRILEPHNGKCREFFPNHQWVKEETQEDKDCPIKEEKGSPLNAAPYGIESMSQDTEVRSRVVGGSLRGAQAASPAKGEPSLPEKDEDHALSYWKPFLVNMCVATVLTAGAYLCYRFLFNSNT
Assay: Protein tyrosine phosphatase 1B inhibitory activity (malachite green, phosphorylated insulin receptor peptide substrate)
Type: biochemical
Conditions: recombinant human PTP1B, 60 min room temperature, absorbance 650 nm
As shown below, each of these compounds has a reported IC50 value.

[[record]]
compound = "CN(Cc1ccc([C@H]2CC[C@H](C)CC2)cc1)c1ccc(-c2csc(CN(CC(=O)O)Cc3ccccn3)n2)cc1"
result = "0.54 µM"

[[record]]
compound = "CCCC(CCC)c1ccc(Cn2cc(-c3csc(Cn4cc(C(=O)O)c5ccccc54)n3)c3ccccc32)cc1"
result = "0.19 µM"

[[record]]
compound = "CCCC(CCC)c1ccc(OCc2ccc(-c3csc(CN4CCc5ccc(C(=O)O)cc5C4)n3)cc2)cc1"
result = "0.31 µM"

[[record]]
compound = "CCCC(CCC)c1ccc(OCc2ccc(-c3ccc(CN(CC(=O)O)Cc4nc(C(C)(C)C)cs4)s3)cc2)cc1"
result = "0.087 µM"

[[record]]
compound = "CN(Cc1ccc(C2CCCCC2)cc1)c1ccc(-c2csc(CNC(Cc3ccccc3)C(=O)O)n2)cc1 (centres unmarked)"
result = "0.48 µM"

[[record]]
compound = "CCCC(CCC)c1ccc(OCc2ccc(-c3ccc(CN(CC(=O)O)Cc4ccc(SC)cc4)s3)cc2)cc1"
result = "0.38 µM"

[[record]]
compound = "CCCC(CCC)c1ccc(Cn2cc(-c3csc(CNc4cccc(C(=O)O)c4)n3)c3ccccc32)cc1"
result = "0.41 µM"

[[record]]
compound = "CCCC(CCC)c1ccc(OCc2ccc(-c3ccc(CN(CC(=O)O)Cc4ccc(OC)cc4)s3)cc2)cc1"
result = "0.4 µM"


query: Item CCCC(CCC)c1ccc(OCc2ccc(-c3csc(COc4ccc(C(=O)O)cc4)c3)cc2)cc1 has what recorded IC50?
result: 0.19 µM

query: Endpoint output: IC50 of CCCC(CCC)c1ccc(OCc2ccc(-c3csc(CN(CC(=O)O)Cc4nc5ccccc5[nH]4)c3)cc2)cc1 . Value?
result: 0.092 µM

query: State the recorded IC50 for this entry: CCCC(CCC)c1ccc(Cn2cc(-c3csc(CN4CCN(c5cccc(C(=O)O)c5)CC4)n3)c3ccccc32)cc1
result: 0.28 µM

query: Name the reported IC50 value associated with the compound CN(Cc1ccc(C2CCC(C)(C)CC2)cc1)c1ccc(-c2csc(CN(C)S(=O)(=O)c3ccc(C(=O)O)cc3)n2)cc1
result: 0.16 µM

query: I'd like to know its IC50. The compound in question is CCCC(CCC)c1ccc(OCc2ccc(-c3csc(CN(CC(=O)O)Cc4cc5ccccc5o4)c3)cc2)cc1
result: < 0.1 µM

query: Endpoint output: IC50 of CCCC(CCC)c1ccc(OCc2ccc(-c3csc(N(C)Cc4ccc(C(=O)O)cc4)n3)cc2)cc1 . Value?
result: 0.19 µM

---

measured-property: melting point

Sample records with melting point:
[[record]]
compound = "CCCC(CCC)c1ccc(OCc2ccc(-c3ccc(C(=O)N(CC(=O)O)Cc4cccnc4)s3)cc2)cc1"
result = "153 to 156 °C"

[[record]]
compound = "CC(C)Cc1ccc(CN(C)c2ccc(-c3csc(CN(CC(=O)O)Cc4ccc(Cl)cc4)n3)cc2)cc1"
result = "153 to 157 °C"

[[record]]
compound = "CCCC(CCC)c1ccc(N(C)Cc2ccc(-c3csc(N(C)Cc4ccc(C(=O)O)cc4)n3)cc2)cc1"
result = "110 to 113 °C"

[[record]]
compound = "CC(C)Cc1ccc(CN(C)c2ccc(-c3csc(CN(CC(=O)O)C(=O)Cc4ccc(Cl)cc4)n3)cc2)cc1"
result = "150 to 152 °C"

[[record]]
compound = "CCCC(CCC)c1ccc(OCc2ccc(-c3csc(CN(C)[C@@H](Cc4ccccc4)C(=O)O)n3)cc2)cc1"
result = "114 to 118 °C"

[[record]]
compound = "CC(C)(C)Cc1nc2ccccc2n1Cc1ccc(-c2csc(CN(CC(=O)O)Cc3ccccc3)c2)cc1"
result = "161 to 166 °C"

[[record]]
compound = "CCC(C)(C)c1ccc(OCc2ccc(-c3csc(N(C)Cc4ccc(C(=O)O)cc4)n3)cc2)cc1"
result = "155 to 157 °C"

[[record]]
compound = "CCC(CC)c1ccc(N(Cc2ccc(-c3csc(COc4cncc(C(=O)O)c4)c3)cc2)C(C)C)cc1"
result = "160 °C"

[[record]]
compound = "CCCC(CCC)c1ccc(COc2ccc(C)cc2-c2csc(CN3Cc4ccccc4CC3C(=O)O)n2)cc1 (stereo not drawn)"
result = "149 to 152 °C"

[[record]]
compound = "CN(C[C@H]1CC[C@H](c2ccc(Cl)cc2)CC1)c1ccc(-c2csc(CN(CC(=O)O)Cc3ccccc3)n2)cc1"
result = "180 to 182 °C"


query: // returns reported melting point for input CCCC(CCC)c1ccc(OCc2ccc(-c3csc(CN(CC(=O)O)C(=O)COc4ccc(C(C)C)cc4)n3)cc2)cc1
result: 192 to 194 °C

query: Using the record for CCC(CC)c1ccc(N(Cc2ccc(-c3csc(CSc4ccc(C(=O)O)cc4)n3)cc2)C(C)C)cc1 , report its melting point.
result: 132.5 °C

query: Record request: melting point value, item CCCC(CCC)c1ccc(OCc2ccc(-c3csc(CN(CC(=O)O)CC(=O)Nc4ccccc4)n3)cc2)cc1
result: 149.5 °C

query: melting point lookup needed for CCC(CC)N(Cc1ccc(-c2csc(COc3ccc(C(=O)O)cn3)n2)cc1)c1ccc(C(C)C)cc1 , thanks.
result: 155 to 157 °C

query: # melting point lookup, item CCCC(CCC)c1ccc(COc2ccc(-c3csc(CN4CCC(c5cccc(C(=O)O)c5)CC4)n3)cc2)cc1
result: 187 to 189 °C
